system: SNB-19 CNS; assay: NCI tumour cell line growth inhibition, 48 h
Result type: TGI

molecule=O=C(N/N=C/C=C/c1ccccc1)c1ccccc1Nc1ccccc1C(=O)N/N=C/C=C/c1ccccc1 result_type=TGI endpoint_result="> 100 µM"
molecule=Cc1cccc(C)c1NC(=O)CCc1nc(=S)[nH][nH]1 result_type=TGI endpoint_result="> 100 µM"
molecule=COc1ccc(CCc2cc(OC)cc(OC)c2)cc1 result_type=TGI endpoint_result="> 100 µM"
molecule=CC(C)=CCNc1nc(Cl)nc2nc[nH]c12 result_type=TGI endpoint_result="> 100 µM"
molecule="Cc1cc(O)c(C2=NN(c3ccc(S(N)(=O)=O)cc3)C(c3ccc(Cl)cc3)C2)c(C)c1Cl (stereo not given)" result_type=TGI endpoint_result="24.9 µM"
molecule=CCOP(=O)(OCC)/C(=C/c1cccs1)CC(C)=O result_type=TGI endpoint_result="> 100 µM"
molecule="NNC(=O)C1(NC(=O)c2ccccc2)C(c2ccccc2)C(c2ccccc2)=NN1c1ccccc1 (stereo not given)" result_type=TGI endpoint_result="> 100 µM"
molecule="CN1C(=O)C(O)C[C@@H]1c1ccccc1 (stereo not given in full)" result_type=TGI endpoint_result="> 100 µM"
molecule="C=C1CCC2(C#N)[C@H]3[C@H](CC[C@@H]2C)[C@@H](C)C[C@@H](CC(C)(C)NC(=O)CN2CCC2=O)[C@H]13 (stereo not given in full)" result_type=TGI endpoint_result="48.4 µM"
molecule="CN1CC2=C(NC(=S)NC2c2ccccc2)/C(=C/c2ccccc2)C1 (stereo not given)" result_type=TGI endpoint_result="> 100 µM"
